Each recorded value in this set is attributed to the supplement of paper PMC10657565.

system: SUM159; assay: relative cell viability vs DMSO control (% of DMSO control); higher = less growth inhibition (higher viability); conditions: 0.3 µM; treatment time: 72 h
Could you mark each record 1.0 if its relative cell viability falls strictly under 90, and 0.0 if it equals or exceeds it?

[
  {
    "molecule": "Cc1c(F)cc(C(=O)NC2CC2)cc1-c1ccc(C(=O)NCC(C)(C)C)cn1 [Losmapimod]",
    "discrete.label": 0.0
  },
  {
    "molecule": "c1cc(OCCN2CCCCC2)cc(-c2n[nH]c3ccc(-c4nnc[nH]4)cc23)c1 [CC-401]",
    "discrete.label": 0.0
  },
  {
    "molecule": "COc1cc2ncnc(Nc3ccc(O)cc3)c2cc1OC [JANEX-1]",
    "discrete.label": 0.0
  },
  {
    "molecule": "CC(C)c1cc(CNc2nc(Nc3cc(C4CC4)[nH]n3)cc(N3CCN(C)CC3)n2)on1 [XL-228]",
    "discrete.label": 1.0
  },
  {
    "molecule": "COCCN1CCN(Cc2ccc(-c3n[nH]c4c3C(=O)c3c(NC(=O)NN5CCOCC5)cccc3-4)cc2)CC1",
    "discrete.label": 1.0
  },
  {
    "molecule": "COC(=O)[C@@]1(O)C[C@H]2O[C@]1(C)n1c3ccccc3c3c4c(c5c6ccccc6n2c5c31)C(=O)NC4 [K-252a]",
    "discrete.label": 1.0
  }
]

###

system: HCC1806; assay: relative cell viability vs DMSO control (% of DMSO control); higher = less growth inhibition (higher viability); settings: 0.03 µM; treatment time: 72 h

[
  {
    "molecule": "COCCN1CCN(Cc2ccc(-c3n[nH]c4c3C(=O)c3c(NC(=O)NN5CCOCC5)cccc3-4)cc2)CC1",
    "target.or.system": "HCC1806",
    "relative cell viability": 42.8
  },
  {
    "molecule": "Cc1ccc(-n2nc(C(C)(C)C)cc2NC(=O)NCc2cc(F)ccc2Oc2ccc3c(cnn3CCO)c2)cc1 [Pexmetinib]",
    "target.or.system": "HCC1806",
    "relative cell viability": 102
  },
  {
    "molecule": "Cn1c(=O)c(F)c(Nc2ccc(I)cc2F)c2c(=O)n(C[C@@H](O)CO)cnc21 [TAK-733]",
    "target.or.system": "HCC1806",
    "relative cell viability": 73.8
  },
  {
    "molecule": "CNS(=O)(=O)Nc1nccc(Cc2c(C)c3ccc(Oc4ncccn4)cc3oc2=O)c1F",
    "target.or.system": "HCC1806",
    "relative cell viability": 78.5
  }
]

###

test system: SKBR3; assay: relative cell viability vs DMSO control (% of DMSO control); higher = less growth inhibition (higher viability); settings: 0.1 µM; treatment time: 72 h

[
  {
    "molecule": "COCc1c(-c2ccc(NC(=O)Nc3cc(C(F)(F)F)ccc3F)c(F)c2)c2c(N)ncnn2c1CN1CCOCC1",
    "relative cell viability": 106
  },
  {
    "molecule": "COc1cc2ncnc(Nc3ccc(O)cc3)c2cc1OC",
    "relative cell viability": 105
  },
  {
    "molecule": "COC(=O)[C@@]1(O)C[C@H]2O[C@]1(C)n1c3ccccc3c3c4c(c5c6ccccc6n2c5c31)C(=O)NC4 [K-252a]",
    "relative cell viability": 81.8
  },
  {
    "molecule": "c1cc(OCCN2CCCCC2)cc(-c2n[nH]c3ccc(-c4nnc[nH]4)cc23)c1",
    "relative cell viability": 100
  }
]
